Test system: NCI-H522 lung
procedure-details: NCI-60 one-dose screen, 48 h (100 = growth as untreated, 0 = no growth, -100 = all killed)
experimental-context: 10 µM unless noted
About 83,000 compounds went through this panel and 20% of them were active in at least one assay; those are over-represented in the sample as a whole.
readout: growth (%)
Unit % implied. Number only.

Ask: Consider the molecule shown here: c1ccc2cc(C[n+]3ccn(CCCCCCCCCCCCn4cc[n+](Cc5ccc6ccccc6c5)c4)c3)ccc2c1 What is its recorded growth?
Reply: -74.2

Ask: Consider the molecule shown here: OC(COc1ccccc1)CN1CCN(c2ccc(Cl)cc2)CC1 (centres undefined) What is its recorded growth?
Reply: 98.3

Ask: Consider the molecule shown here: O=c1c2cc(F)cc(Cl)c2sc2c(NCCCNCCO)nc3ccccc3c12 What is its recorded growth?
Reply: 92.4

Ask: Consider the molecule shown here: CC(=O)CC[C@H]1C(=O)N[C@@H](C(C)C)C(=O)N[C@@H](Cc2cc(O)cc(F)c2)C(=O)N2CCC[C@H](N2)C(=O)O[C@H](/C(C)=C/C=C/C(=O)OC(C)(C)C)C/C=C/C=C/[C@H](O)[C@H](C)[C@H]1O What is its recorded growth?
Reply: 43.8

----------
Tested on: IGROV1 ovarian
procedure-details: NCI-60 one-dose screen, 48 h (100 = growth as untreated, 0 = no growth, -100 = all killed)
experimental-context: 10 µM unless noted
About 83,000 compounds went through this panel and 20% of them were active in at least one assay; those are over-represented in the sample as a whole.
Classify by measured growth: t if it is equal to or exceeds 60%, f if it is smaller.

molecule	system	assigned-label
CCOC(=O)c1sc2ncc(-c3ccc(OC)cc3)n2c1C	IGROV1 ovarian	t
C[C@H]1[C@H]2[C@H]3CC[C@@H]4[C@@]5(C)CC[C@H](O)C(C)(C)[C@@H]5CC[C@@]4(C)[C@]3(C)CC[C@]23CO[C@]1(C)[C@@H](C(=O)/C=C\c1cccnc1)C3	IGROV1 ovarian	t

Ask: Assess whether reported growth for CN(C(=O)NCc1cccc(F)c1Cl)[C@H](COC(=O)Nc1cc2ccccc2cn1)CC(O)CO (some centres undefined) sits at 60% or higher.
Reply: t

Ask: Assess whether reported growth for CN1C(=O)N(C)C2Nn3c(s/c(=C\c4ccccc4)c3=O)=NC21 (centres undefined) sits at 60% or higher.
Reply: t

Ask: Assess whether reported growth for CCCCCCNC(=O)Oc1ccc(/C(=C(\C)c2ccc(Cl)cc2)c2ccc(OCCN3CCCCC3)cc2)cc1 sits at 60% or higher.
Reply: f

Ask: Assess whether reported growth for BrCCCc1n(Cc2ccc3ccccc3c2)c2ccccc2[n+]1Cc1ccc2ccccc2c1 sits at 60% or higher.
Reply: f

Ask: Assess whether reported growth for Cc1nc(/N=C(\N)NC(=O)Nc2ccccc2Cl)sc1C sits at 60% or higher.
Reply: f

Ask: Assess whether reported growth for CCN(CC)c1ccc(C2=NN(C(C)=O)C(c3cc(OC)c(OC)c(OC)c3)C2)cc1 (centres undefined) sits at 60% or higher.
Reply: f

----------
A collection of molecules and their measured growth
Tested on: SF-268 CNS
procedure-details: NCI-60 one-dose screen, 48 h (100 = growth as untreated, 0 = no growth, -100 = all killed)
experimental-context: 10 µM unless noted
Protocol: Cells are grown in 96 well plates and exposed to the test compound for 48 hours. Compounds are tested at a single concentration, which is 10^-5 M for most compounds. The reported endpoint is percent growth (GI% or GIPRCNT), where numbers from 0 - 100% represent growth inhibition, and numbers from -100% - 0 represent cell death. For example, a value of 40 represents 60% growth inhibition. A value of 0 means no net growth occurred over the course of the experiment. […]
The panel holds about 83,000 compounds, 20% with a hit somewhere; the sample as a whole holds those more often. Active and inactive are the calls of the source. The calls were made as follows: active = growth percent below 10; inactive = the rest.

molecule	system	readout	obs-value
NC(=O)Nc1ccc2ncnc(Nc3ccc(Cl)cc3)c2c1	SF-268 CNS	growth	79.7% (inactive)
Cc1ccc2nc(NC(=O)CSc3nc(Cl)c(C#N)c(-c4ccccc4)n3)sc2c1	SF-268 CNS	growth	111% (inactive)
NCCCNc1nc2ccccc2c2c(=O)c3cc(F)cc(F)c3sc12	SF-268 CNS	growth	81.7% (inactive)
Cc1ccc2sc3c(NCCN)nc4ccccc4c3c(=O)c2c1	SF-268 CNS	growth	74.5% (inactive)
CN1C(=O)CNC(=O)[C@H](NC(=O)c2nc3ccccc3cc2O)CSSC[C@H]1C(=O)NCCCc1nc2ccccc2cc1O	SF-268 CNS	growth	49.5% (inactive)
O=c1c2cc(F)cc(Cl)c2sc2c(NCCCNCCO)nc3ccccc3c12	SF-268 CNS	growth	67.1% (inactive)
Clc1ccc2c(c1)N(CCCN1CCCC1)c1ccccc1S2	SF-268 CNS	growth	30% (inactive)
Cc1nc2ccccc2n1CC1C(=O)NC(=O)NC1=O	SF-268 CNS	growth	106% (inactive)
C#Cc1cccc(NC(=O)c2ccc(NC(=O)C=C)cc2)c1	SF-268 CNS	growth	79.3% [8.25 µM] (inactive)
Brc1c[n+](Cc2ccc3ccccc3c2)cn1Cc1ccc2ccccc2c1	SF-268 CNS	growth	14.5% (inactive)

Ask: Consider the molecule shown here: Fc1cc(-c2nnc3n2NC(=Nc2ccc(Cl)cc2)CS3)c(Cl)cc1Cl What is its recorded growth?
Reply: 91.7% (inactive)

Ask: Consider the molecule shown here: CC(=O)OC[C@H]1OC(Sc2sc(C(=O)c3ccc(Cl)cc3)c(N)c2-c2nc3ccccc3s2)[C@H](OC(C)=O)[C@@H](OC(C)=O)[C@@H]1OC(C)=O (stereo not given in full) What is its recorded growth?
Reply: 77.3% (inactive)

Ask: Consider the molecule shown here: CCOC(=O)C1=C(N)Oc2c(sc3c(CC)cccc23)C1c1ccc(F)cc1 (stereo not given) What is its recorded growth?
Reply: 48.9% (inactive)
